pIC50: −log10 of the molar value.
Test system ITK (Homo sapiens, UniProt Q08881), pIC50 listed for each of the molecules.

>  <Molecule>
COc1ccc(F)cc1C(=O)NCc1ccc(-c2nc(C(C)C(F)(F)F)cc3[nH]nc(N)c23)cc1 (single isomer, unassigned) [Example 3]

>  <pIC50>
< 6.30

$$$$
>  <Molecule>
COc1ccc(F)cc1C(=O)NCc1ccc(-c2ncc(-c3ccc(N4CCN(C)C[C@@H]4C)cn3)c3[nH]nc(N)c23)cc1

>  <pIC50>
6.30 to 7.30

$$$$
>  <Molecule>
COc1ccc(F)cc1C(=O)NCc1ccc(-c2ncc(-c3ccc(C(=O)N4CCOCC4)cn3)c3[nH]nc(N)c23)cc1

>  <pIC50>
6.30 to 7.30

$$$$
>  <Molecule>
COc1ccc(F)cc1C(=O)NCc1ccc(-c2ncc(-c3cn4ccnc4cn3)c3[nH]nc(N)c23)cc1

>  <pIC50>
< 6.30

$$$$
